Sourced from ChEMBL document CHEMBL4425133

# test system: Tubulin
# assay notes: Binding affinity to tubulin (unknown origin)
Give IC50 for every item shown.
Numeric answer only, unit nM assumed.

Briefly, IC50 measured for COC(=O)Nc1nc2cc(Sc3nnc4ccc(-c5ccc(F)cc5)nn34)ccc2[nH]1 : 2000

Briefly, IC50 measured for COC(=O)Nc1nc2cc(OS(=O)(=O)c3c(Cl)cccc3Cl)ccc2[nH]1 : 2700

* * *

# test system: UniProt P08684
# Sequence (P08684 whole entry): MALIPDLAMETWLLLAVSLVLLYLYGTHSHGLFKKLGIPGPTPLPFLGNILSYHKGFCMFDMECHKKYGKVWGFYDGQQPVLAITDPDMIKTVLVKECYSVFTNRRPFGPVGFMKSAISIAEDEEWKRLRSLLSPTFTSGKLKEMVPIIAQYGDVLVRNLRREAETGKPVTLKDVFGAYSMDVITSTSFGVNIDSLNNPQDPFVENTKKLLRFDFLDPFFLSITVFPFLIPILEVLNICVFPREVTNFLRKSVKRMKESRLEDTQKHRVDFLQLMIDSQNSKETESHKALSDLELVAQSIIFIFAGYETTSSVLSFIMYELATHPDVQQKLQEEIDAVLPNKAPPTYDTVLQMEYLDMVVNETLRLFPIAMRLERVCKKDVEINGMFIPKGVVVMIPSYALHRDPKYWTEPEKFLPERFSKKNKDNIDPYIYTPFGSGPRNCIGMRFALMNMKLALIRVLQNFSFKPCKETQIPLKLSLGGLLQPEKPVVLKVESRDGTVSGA
# assay notes: Inhibition of human recombinant CYP3A4 co-expressed with human P450 reductase and human b5 reductase assessed as reduction in 7-Hydroxyquinoline production using 7-benzyloxyquinoline as substrate and NADPH incubated for 15 mins by fluorimetry
assay readout: pIC50
Remember, pIC50 is on a log scale: it is -log10 of the molar concentration.

Briefly, pIC50 measured for O=C(NCCN1CCOCC1)Nc1nc2ccc(Sc3nnc4ccc(OC5CCCC5)nn34)cc2s1 : 4.51

Briefly, pIC50 measured for CCCCOc1ccc2nnc(Sc3ccc4nc(NC(=O)NCCN5CCOCC5)sc4c3)n2n1 : 5.06

Briefly, pIC50 measured for O=C(NCCN1CCOCC1)Nc1nc2ccc(Sc3nnc4cccnn34)cc2s1 : 4.47

Briefly, pIC50 measured for O=C(NCCN1CCOCC1)Nc1nc2ccc(Sc3nnc4ccc(NC5CC5)nn34)cc2s1 : 6.70

Briefly, pIC50 measured for O=C(NCCN1CCOCC1)Nc1nc2ccc(Sc3nnc4ccc(OC5CCCCCC5)nn34)cc2s1 : 4.85

Briefly, pIC50 measured for CCOc1ccc2nnc(Sc3ccc4nc(NC(=O)NCCN5CCOCC5)sc4c3)n2n1 : 5.40

Briefly, pIC50 measured for O=C(NCCN1CCOCC1)Nc1nc2ccc(Sc3nnc4ccc(NC5CCCCC5)nn34)cc2s1 : 5.54

* * *

# test system: Hepatocyte growth factor receptor (Homo sapiens, UniProt P08581, Y1230H)
# Sequence (P08581 25-1390 Y1230H limits assumed): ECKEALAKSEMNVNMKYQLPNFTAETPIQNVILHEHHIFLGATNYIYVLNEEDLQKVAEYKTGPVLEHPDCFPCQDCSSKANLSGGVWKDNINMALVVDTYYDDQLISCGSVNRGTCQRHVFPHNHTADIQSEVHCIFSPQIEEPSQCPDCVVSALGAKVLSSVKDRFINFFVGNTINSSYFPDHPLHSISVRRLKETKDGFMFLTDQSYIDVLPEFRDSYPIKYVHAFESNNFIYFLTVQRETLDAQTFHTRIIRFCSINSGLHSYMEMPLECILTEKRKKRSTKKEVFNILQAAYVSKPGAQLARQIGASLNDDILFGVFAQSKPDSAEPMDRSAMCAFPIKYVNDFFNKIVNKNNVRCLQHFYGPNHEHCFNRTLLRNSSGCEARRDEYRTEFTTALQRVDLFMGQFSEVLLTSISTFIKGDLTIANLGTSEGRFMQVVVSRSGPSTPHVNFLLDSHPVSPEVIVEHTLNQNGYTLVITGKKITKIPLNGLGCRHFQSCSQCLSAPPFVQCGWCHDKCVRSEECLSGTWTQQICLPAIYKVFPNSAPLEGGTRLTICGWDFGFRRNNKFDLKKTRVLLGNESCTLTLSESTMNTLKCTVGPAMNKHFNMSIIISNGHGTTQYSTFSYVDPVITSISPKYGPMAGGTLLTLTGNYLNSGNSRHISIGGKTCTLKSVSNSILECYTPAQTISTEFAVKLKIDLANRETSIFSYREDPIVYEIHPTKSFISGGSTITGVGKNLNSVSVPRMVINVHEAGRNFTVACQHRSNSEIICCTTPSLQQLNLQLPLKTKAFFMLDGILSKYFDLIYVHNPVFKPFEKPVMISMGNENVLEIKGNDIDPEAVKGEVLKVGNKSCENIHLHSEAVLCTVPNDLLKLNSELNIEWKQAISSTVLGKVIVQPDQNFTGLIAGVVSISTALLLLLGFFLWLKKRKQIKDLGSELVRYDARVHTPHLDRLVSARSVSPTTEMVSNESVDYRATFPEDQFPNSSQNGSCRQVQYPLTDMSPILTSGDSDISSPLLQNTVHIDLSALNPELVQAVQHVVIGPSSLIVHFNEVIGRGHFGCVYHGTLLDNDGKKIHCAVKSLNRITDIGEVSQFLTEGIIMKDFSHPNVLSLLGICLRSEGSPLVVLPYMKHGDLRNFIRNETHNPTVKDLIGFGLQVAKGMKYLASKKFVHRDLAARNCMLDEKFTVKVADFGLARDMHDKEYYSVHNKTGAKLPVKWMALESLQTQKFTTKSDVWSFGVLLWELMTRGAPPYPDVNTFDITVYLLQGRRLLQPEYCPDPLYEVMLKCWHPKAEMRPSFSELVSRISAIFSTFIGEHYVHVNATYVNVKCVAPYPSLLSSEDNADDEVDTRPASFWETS
# assay notes: Inhibition of phosphorylated MET Y1230H mutant (unknown origin) pre-incubated for 30 mins before biotinylated poly(glutamate-alanine-tyrosine) peptide addition and measured after 5 mins by HTRF assay
Give pIC50 for every item shown.
Remember, pIC50 is on a log scale: it is -log10 of the molar concentration.

Briefly, pIC50 measured for CCN1CCC(CCNC(=O)Nc2nc3ccc(Sc4nnc5ccc(-c6cccs6)nn45)cc3s2)CC1 : 7.64

Briefly, pIC50 measured for O=C(NCCN1CCOCC1)Nc1nc2ccc(Sc3nnc4ccc(OC5CCCC5)nn34)cc2s1 : 6.67

Briefly, pIC50 measured for O=C(NCCN1CCOCC1)Nc1nc2ccc(Sc3nnc4ccc(-c5cccc(F)c5)nn34)cc2s1 : 6.85

Briefly, pIC50 measured for O=C(NCCN1CCOCC1)Nc1nc2ccc(Sc3nnc4ccc(NC5CCOCC5)nn34)cc2s1 : 6.66

* * *

# assay notes: Equilibrium solubility in phosphate buffer in presence of 10% Labrasol at pH 7.4
# Format: physicochemical
# assay conditions: phosphate buffer with 10% Labrasol
Give log10 of solubility thermodynamic for every item shown.
All values: base-10 log of solubility thermodynamic in µM.

Briefly, log10 of solubility thermodynamic measured for O=C(Nc1nc2ccc(Sc3nnc4ccc(-c5ccc(F)cc5)nn34)cc2s1)OCCN1CCOCC1 : 2.39

Briefly, log10 of solubility thermodynamic measured for O=C(CCCN1CCOCC1)Nc1nc2ccc(Sc3nnc4ccc(-c5ccc(F)cc5)nn34)cc2s1 : 1.98

Briefly, log10 of solubility thermodynamic measured for O=C(NCCN1CCOCC1)Nc1nc2ccc(Sc3nnc4ccc(-c5cccc(F)c5)nn34)cc2s1 : 3.07

Briefly, log10 of solubility thermodynamic measured for O=C(NCCN1CCOCC1)Nc1nc2ccc(Sc3nnc4ccc(OC5CCCCC5)nn34)cc2s1 : 2.70

Briefly, log10 of solubility thermodynamic measured for O=C(Nc1nc2ccc(Sc3nnc4ccc(-c5ccc(F)cc5)nn34)cc2s1)C1CC1 : 1.81

Briefly, log10 of solubility thermodynamic measured for Nc1nc2ccc(Sc3nnc4ccc(-c5ccc(F)cc5)nn34)cc2s1 : 1.64

Briefly, log10 of solubility thermodynamic measured for Fc1ccc(-c2ccc3nnc(Sc4ccc5nc(NCCN6CCOCC6)sc5c4)n3n2)cc1 : 2.73

Briefly, log10 of solubility thermodynamic measured for COC(=O)Nc1nc2ccc(Sc3nnc4ccc(-c5ccc(F)cc5)nn34)cc2s1 : 1.18

Briefly, log10 of solubility thermodynamic measured for CCN(CC)CCNC(=O)Nc1nc2ccc(Sc3nnc4ccc(-c5ccc(F)cc5)nn34)cc2s1 : 3.00

* * *

Give solubility thermodynamic for every item shown.
# assay notes: Equilibrium solubility in phosphate buffer in absence of 10% Labrasol at pH 7.4
# Assay type: physicochemical

Briefly, solubility thermodynamic measured for O=C(NCCN1CCOCC1)Nc1nc2ccc(Sc3nnc4ccc(OC5CCCCCC5)nn34)cc2s1 : < 2 µM

Briefly, solubility thermodynamic measured for CCOc1ccc2nnc(Sc3ccc4nc(NC(=O)NCCN5CCOCC5)sc4c3)n2n1 : 5 µM

Briefly, solubility thermodynamic measured for CCCCOc1ccc2nnc(Sc3ccc4nc(NC(=O)NCCN5CCOCC5)sc4c3)n2n1 : < 2 µM

Briefly, solubility thermodynamic measured for O=C(NCCN1CCOCC1)Nc1nc2ccc(Sc3nnc4ccc(-c5ccc(F)cc5)nn34)cc2s1 : < 1 µM

Briefly, solubility thermodynamic measured for CCN(CC)CCNC(=O)Nc1nc2ccc(Sc3nnc4ccc(-c5ccc(F)cc5)nn34)cc2s1 : < 1 µM

Briefly, solubility thermodynamic measured for O=C(NCCN1CCOCC1)Nc1nc2ccc(Sc3nnc4ccc(-c5cccc(F)c5)nn34)cc2s1 : 32 µM

Briefly, solubility thermodynamic measured for O=C(NCCN1CCOCC1)Nc1nc2ccc(Sc3nnc4ccc(NC5CCOCC5)nn34)cc2s1 : 89 µM

Briefly, solubility thermodynamic measured for O=C(CC1CC1)Nc1nc2ccc(Sc3nnc4ccc(-c5ccc(F)cc5)nn34)cc2s1 : < 2 µM

Briefly, solubility thermodynamic measured for O=C(NCCN1CCOCC1)Nc1nc2ccc(Sc3nnc4ccc(Oc5ccccc5)nn34)cc2s1 : < 2 µM

* * *

# test system: Hepatocyte growth factor receptor (Homo sapiens, UniProt P08581, M1250T)
# Sequence (P08581 25-1390 M1250T limits assumed): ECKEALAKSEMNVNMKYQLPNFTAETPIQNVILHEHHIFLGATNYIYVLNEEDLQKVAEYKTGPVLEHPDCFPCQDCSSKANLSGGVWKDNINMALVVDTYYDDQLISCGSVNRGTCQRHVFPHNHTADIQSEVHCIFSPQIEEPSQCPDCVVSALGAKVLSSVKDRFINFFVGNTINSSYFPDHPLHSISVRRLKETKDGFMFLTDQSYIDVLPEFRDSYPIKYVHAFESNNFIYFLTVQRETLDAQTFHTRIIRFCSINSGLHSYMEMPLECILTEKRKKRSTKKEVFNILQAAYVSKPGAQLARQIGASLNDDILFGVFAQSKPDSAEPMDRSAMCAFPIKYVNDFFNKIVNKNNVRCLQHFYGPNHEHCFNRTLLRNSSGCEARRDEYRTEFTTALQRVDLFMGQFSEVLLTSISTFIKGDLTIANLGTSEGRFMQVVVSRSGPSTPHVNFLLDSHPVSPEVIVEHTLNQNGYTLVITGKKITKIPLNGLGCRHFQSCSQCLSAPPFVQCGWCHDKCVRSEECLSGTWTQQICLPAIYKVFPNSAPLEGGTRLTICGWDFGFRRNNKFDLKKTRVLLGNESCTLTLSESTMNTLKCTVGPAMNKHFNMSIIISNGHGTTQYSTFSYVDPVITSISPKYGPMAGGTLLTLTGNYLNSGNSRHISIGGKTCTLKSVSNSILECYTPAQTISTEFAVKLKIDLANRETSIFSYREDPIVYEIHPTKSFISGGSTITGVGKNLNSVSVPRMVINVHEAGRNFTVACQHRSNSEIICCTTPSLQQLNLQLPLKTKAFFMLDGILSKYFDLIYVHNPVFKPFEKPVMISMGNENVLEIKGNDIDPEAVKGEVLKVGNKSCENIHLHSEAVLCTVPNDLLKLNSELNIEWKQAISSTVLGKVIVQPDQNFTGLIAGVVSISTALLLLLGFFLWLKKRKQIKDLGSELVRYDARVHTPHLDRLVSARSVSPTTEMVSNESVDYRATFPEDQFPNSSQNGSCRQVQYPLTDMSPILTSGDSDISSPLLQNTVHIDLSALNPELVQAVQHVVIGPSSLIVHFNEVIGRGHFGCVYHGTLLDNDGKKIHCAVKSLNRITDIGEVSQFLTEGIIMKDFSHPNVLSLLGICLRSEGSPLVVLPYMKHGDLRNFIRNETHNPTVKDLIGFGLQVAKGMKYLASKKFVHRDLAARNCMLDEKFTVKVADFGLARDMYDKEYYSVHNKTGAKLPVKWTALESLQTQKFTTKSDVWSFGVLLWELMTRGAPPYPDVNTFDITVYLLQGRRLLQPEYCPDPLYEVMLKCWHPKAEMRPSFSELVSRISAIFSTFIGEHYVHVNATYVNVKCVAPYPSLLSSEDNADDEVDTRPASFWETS
# assay notes: Inhibition of phosphorylated MET M1250T mutant (unknown origin) pre-incubated for 30 mins before biotinylated poly(glutamate-alanine-tyrosine) peptide addition and measured after 5 mins by HTRF assay
assay readout: pIC50
Remember, pIC50 is on a log scale: it is -log10 of the molar concentration.

Item O=C(CCCN1CCOCC1)Nc1nc2ccc(Sc3nnc4ccc(-c5ccc(F)cc5)nn34)cc2s1 was tested on Hepatocyte growth factor receptor (Homo sapiens, UniProt P08581, M1250T); the reported pIC50 is 7.03

Item CCNc1nc2ccc(Sc3nnc4ccc(-c5ccc(F)cc5)nn34)cc2s1 was tested on Hepatocyte growth factor receptor (Homo sapiens, UniProt P08581, M1250T); the reported pIC50 is 6.38

Item O=C(NCCN1CCOCC1)Nc1nc2ccc(Sc3nnc4ccc(-c5ccc(F)cc5)nn34)cc2s1 [SAR-125844] was tested on Hepatocyte growth factor receptor (Homo sapiens, UniProt P08581, M1250T); the reported pIC50 is 8.22

Item O=C(Nc1nc2ccc(Sc3nnc4ccc(-c5ccc(F)cc5)nn34)cc2s1)C1CC1 was tested on Hepatocyte growth factor receptor (Homo sapiens, UniProt P08581, M1250T); the reported pIC50 is 7.89

Item O=C(CC1CC1)Nc1nc2ccc(Sc3nnc4ccc(-c5ccc(F)cc5)nn34)cc2s1 was tested on Hepatocyte growth factor receptor (Homo sapiens, UniProt P08581, M1250T); the reported pIC50 is 6.89

Item Nc1nc2ccc(Sc3nnc4ccc(-c5ccc(F)cc5)nn34)cc2s1 was tested on Hepatocyte growth factor receptor (Homo sapiens, UniProt P08581, M1250T); the reported pIC50 is 6.61

Item Fc1ccc(-c2ccc3nnc(Sc4ccc5nc(NCCN6CCOCC6)sc5c4)n3n2)cc1 was tested on Hepatocyte growth factor receptor (Homo sapiens, UniProt P08581, M1250T); the reported pIC50 is 6.34

Item CCN(CC)CCNC(=O)Nc1nc2ccc(Sc3nnc4ccc(-c5ccc(F)cc5)nn34)cc2s1 was tested on Hepatocyte growth factor receptor (Homo sapiens, UniProt P08581, M1250T); the reported pIC50 is 7.15

* * *

# assay notes: Terminal half life in advanced solid tumor patient at 50 to 740 mg/m2 during phase-1 trial
# Assay type: ADME
# assay conditions: human, in vivo; read-out: beta t1/2 (converted)
assay readout: half-life (h)
Numeric answer only, unit h assumed.

Briefly, half-life measured for O=C(NCCN1CCOCC1)Nc1nc2ccc(Sc3nnc4ccc(-c5ccc(F)cc5)nn34)cc2s1 : 15.9

* * *

# test system: Hepatocyte growth factor receptor (Homo sapiens)
# assay notes: Inhibition of wild type phosphorylated MET (unknown origin) pre-incubated for 30 mins before biotinylated poly(glutamate-alanine-tyrosine) peptide addition and measured after 5 mins by HTRF assay
Give pIC50 for every item shown.
Remember, pIC50 is on a log scale: it is -log10 of the molar concentration.

Briefly, pIC50 measured for O=C(NCCN1CCOCC1)Nc1nc2ccc(Sc3nnc4ccc(NC5CCOCC5)nn34)cc2s1 : 9.00

Briefly, pIC50 measured for O=C(NCCN1CCOCC1)Nc1nc2ccc(Sc3nnc4ccc(-c5cccc(F)c5)nn34)cc2s1 : 8.00

Briefly, pIC50 measured for O=C(NCCN1CCOCC1)Nc1nc2ccc(Sc3nnc4ccc(Oc5ccccc5)nn34)cc2s1 : 8.70

Briefly, pIC50 measured for CCOc1ccc2nnc(Sc3ccc4nc(NC(=O)NCCN5CCOCC5)sc4c3)n2n1 : 8.52

Briefly, pIC50 measured for CCN1CCC(CCNC(=O)Nc2nc3ccc(Sc4nnc5ccc(-c6cccs6)nn45)cc3s2)CC1 : 8.70

Briefly, pIC50 measured for CCNc1nc2ccc(Sc3nnc4ccc(-c5ccc(F)cc5)nn34)cc2s1 : 7.82

Briefly, pIC50 measured for O=C(NCCN1CCOCC1)Nc1nc2ccc(Sc3nnc4ccc(-c5ccc(F)cc5)nn34)cc2s1 [SAR-125844] : 8.40
